All figures here come from paper PMC11345841.

biological target: FLT3(R834Q) (Homo sapiens, UniProt P36888, R834Q); construct: purchased Eurofins DiscoverX KINOMEscan (scanTK); experiment: KINOMEscan ScanTK; format: binding; conditions: read-out: %Control @1000nM
The following molecules are shown together with reported remaining binding at 1 µM values.

Cc1cnc(S(C)(=O)=O)nc1N1CCCC(n2nc(-c3ccc(Oc4ccccc4)cc3)c3c(N)ncnc32)C1 (centres unmarked)	70%

Q. # query: remaining binding at 1 µM of entry COC(=O)c1cnc(S(C)(=O)=O)nc1N1CCCC(n2nc(-c3ccc(Oc4ccccc4)cc3)c3c(N)ncnc32)C1 (centres unmarked)
A. 83%

Q. Recorded remaining binding at 1 µM for CNC(=O)c1cnc(S(C)(=O)=O)nc1N1CCCC(n2nc(-c3ccc(Oc4ccccc4)cc3)c3c(N)ncnc32)C1 (centres unmarked) , please?
A. 90%

Q. Suppose we examine the molecule CCOC(=O)c1cnc(S(C)(=O)=O)nc1N1CCC[C@@H](n2nc(-c3ccc(Oc4ccccc4)cc3)c3c(N)ncnc32)C1 ; what remaining binding at 1 µM value has been reported?
A. 99%

Q. What remaining binding at 1 µM value was documented for this molecule, C=CC(=O)N1CCC[C@@H](n2nc(-c3ccc(Oc4ccccc4)cc3)c3c(N)ncnc32)C1 [Compound 1g, Ibrutinib, reference compound] ?
A. 61%

---

Overview of reported remaining binding at 1 µM across a group of compounds:
molecular target: TYK2(JH1domain-catalytic) (Homo sapiens, UniProt P29597); construct: TYK2(JH1domain-catalytic); purchased Eurofins DiscoverX KINOMEscan (scanTK); test: KINOMEscan ScanTK; assay type: binding; settings: @1000nM, read-out: %Control
Sequence (P29597 888-1187 limits assumed): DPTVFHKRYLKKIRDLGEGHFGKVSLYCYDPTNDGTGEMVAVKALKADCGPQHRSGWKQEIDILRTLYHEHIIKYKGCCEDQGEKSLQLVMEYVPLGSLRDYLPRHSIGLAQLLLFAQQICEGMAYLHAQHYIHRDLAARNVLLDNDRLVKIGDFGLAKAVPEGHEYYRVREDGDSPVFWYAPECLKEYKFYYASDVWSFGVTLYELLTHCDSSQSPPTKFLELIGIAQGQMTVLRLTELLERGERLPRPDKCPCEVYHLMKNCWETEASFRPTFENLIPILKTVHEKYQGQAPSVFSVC
Please give a number only; it is taken to be in %.

CNC(=O)c1cnc(S(C)(=O)=O)nc1N1CCCC(n2nc(-c3ccc(Oc4ccccc4)cc3)c3c(N)ncnc32)C1 (stereo not shown)	100
COC(=O)c1cnc(S(C)(=O)=O)nc1N1CCCC(n2nc(-c3ccc(Oc4ccccc4)cc3)c3c(N)ncnc32)C1 (stereo not shown)	95
CCOC(=O)c1cnc(S(C)(=O)=O)nc1N1CCC[C@@H](n2nc(-c3ccc(Oc4ccccc4)cc3)c3c(N)ncnc32)C1	100

For the next question, use this compound.
Q. Could you tell me which remaining binding at 1 µM is on file for Cc1cnc(S(C)(=O)=O)nc1N1CCCC(n2nc(-c3ccc(Oc4ccccc4)cc3)c3c(N)ncnc32)C1 (stereo not shown) ?
A. 89

---

target: EGFR(L747-S752del, P753S) (Homo sapiens, UniProt P00533, DEL747-752/P753S); construct: purchased Eurofins DiscoverX KINOMEscan (scanTK); assay: KINOMEscan ScanTK; format: binding; conditions: @1000nM
Sequence (P00533 with tags, fused parts or gaps DEL747-752/P753S limits assumed): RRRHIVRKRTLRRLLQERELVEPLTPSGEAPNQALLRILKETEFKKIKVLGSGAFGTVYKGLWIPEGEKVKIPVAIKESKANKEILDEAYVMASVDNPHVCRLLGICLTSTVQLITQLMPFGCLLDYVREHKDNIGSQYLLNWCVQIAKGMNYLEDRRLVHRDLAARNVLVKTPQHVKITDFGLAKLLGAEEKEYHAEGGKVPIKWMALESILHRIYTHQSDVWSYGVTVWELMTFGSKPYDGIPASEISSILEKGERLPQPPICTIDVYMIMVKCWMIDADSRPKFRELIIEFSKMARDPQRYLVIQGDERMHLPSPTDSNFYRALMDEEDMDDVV
recorded endpoint: difference in %Control versus compound Ib at 1 µM (%)
// units = %; emit number, no label

Here are 3 molecules together with their reported answers.
COC(=O)c1cnc(S(C)(=O)=O)nc1N1CCCC(n2nc(-c3ccc(Oc4ccccc4)cc3)c3c(N)ncnc32)C1 (stereo not shown)	89.5
CCOC(=O)c1cnc(S(C)(=O)=O)nc1N1CCC[C@@H](n2nc(-c3ccc(Oc4ccccc4)cc3)c3c(N)ncnc32)C1	94.5
CNC(=O)c1cnc(S(C)(=O)=O)nc1N1CCCC(n2nc(-c3ccc(Oc4ccccc4)cc3)c3c(N)ncnc32)C1 (stereo not shown)	36.5

Q. Fill in the blank: the reported difference in %Control versus compound Ib at 1 µM of Cc1cnc(S(C)(=O)=O)nc1N1CCCC(n2nc(-c3ccc(Oc4ccccc4)cc3)c3c(N)ncnc32)C1 (stereo not shown) is ____.
A. 88.5

---

target: TIE2 (Homo sapiens, UniProt Q02763); construct: purchased Eurofins DiscoverX KINOMEscan (scanTK); test: KINOMEscan ScanTK; assay type: binding; settings: read-out: %Control @1000nM
Sequence (Q02763 23-1124): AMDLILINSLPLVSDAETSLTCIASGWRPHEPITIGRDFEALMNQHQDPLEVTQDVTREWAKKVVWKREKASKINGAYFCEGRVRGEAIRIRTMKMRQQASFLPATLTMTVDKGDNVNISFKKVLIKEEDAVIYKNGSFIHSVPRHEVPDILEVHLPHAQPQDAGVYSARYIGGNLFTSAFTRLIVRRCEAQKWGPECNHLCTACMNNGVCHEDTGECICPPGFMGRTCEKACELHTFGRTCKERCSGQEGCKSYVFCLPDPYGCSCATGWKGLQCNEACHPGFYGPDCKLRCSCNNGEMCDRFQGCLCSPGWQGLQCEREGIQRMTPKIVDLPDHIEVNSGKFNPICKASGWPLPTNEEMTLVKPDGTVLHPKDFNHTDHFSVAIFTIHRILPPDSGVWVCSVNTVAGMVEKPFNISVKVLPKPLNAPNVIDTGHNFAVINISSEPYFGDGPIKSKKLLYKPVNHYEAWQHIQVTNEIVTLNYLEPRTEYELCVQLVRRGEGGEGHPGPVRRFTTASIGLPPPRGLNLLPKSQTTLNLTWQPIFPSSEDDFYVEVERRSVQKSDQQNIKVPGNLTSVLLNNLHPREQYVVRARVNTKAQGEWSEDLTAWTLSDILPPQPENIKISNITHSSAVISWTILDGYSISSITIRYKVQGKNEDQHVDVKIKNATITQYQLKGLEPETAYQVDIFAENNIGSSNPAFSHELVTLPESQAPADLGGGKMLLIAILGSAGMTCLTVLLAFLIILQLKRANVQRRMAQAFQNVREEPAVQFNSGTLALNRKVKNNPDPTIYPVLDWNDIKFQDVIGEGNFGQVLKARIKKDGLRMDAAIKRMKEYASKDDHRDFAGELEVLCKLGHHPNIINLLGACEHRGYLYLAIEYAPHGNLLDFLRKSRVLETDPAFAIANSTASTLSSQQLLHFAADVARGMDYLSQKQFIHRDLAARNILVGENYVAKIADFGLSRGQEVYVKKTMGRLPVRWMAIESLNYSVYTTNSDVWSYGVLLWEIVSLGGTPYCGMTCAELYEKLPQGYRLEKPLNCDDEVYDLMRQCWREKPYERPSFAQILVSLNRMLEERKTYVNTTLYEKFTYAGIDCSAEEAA
Examples of molecules with documented remaining binding at 1 µM follow.
The reply should be a number in %, with the unit left off.

Worked examples follow.
Cc1cnc(S(C)(=O)=O)nc1N1CCCC(n2nc(-c3ccc(Oc4ccccc4)cc3)c3c(N)ncnc32)C1 (stereo not shown)	91
CNC(=O)c1cnc(S(C)(=O)=O)nc1N1CCCC(n2nc(-c3ccc(Oc4ccccc4)cc3)c3c(N)ncnc32)C1 (stereo not shown)	74
COC(=O)c1cnc(S(C)(=O)=O)nc1N1CCCC(n2nc(-c3ccc(Oc4ccccc4)cc3)c3c(N)ncnc32)C1 (stereo not shown)	72

Now look at this entry.
Q. Param item = CCOC(=O)c1cnc(S(C)(=O)=O)nc1N1CCC[C@@H](n2nc(-c3ccc(Oc4ccccc4)cc3)c3c(N)ncnc32)C1 ; retrieve measured remaining binding at 1 µM.
A. 90

---

Listed next: entries and their corresponding remaining binding at 1 µM.
biological target: ROS1 (Homo sapiens, UniProt P08922); construct: purchased Eurofins DiscoverX KINOMEscan (scanTK); assay: KINOMEscan ScanTK; type: binding; conditions: read-out: %Control @1000nM
# include the unit after the value

Below, each entry is followed by its recorded remaining binding at 1 µM result.
C=CC(=O)N1CCC[C@@H](n2nc(-c3ccc(Oc4ccccc4)cc3)c3c(N)ncnc32)C1 [Compound 1g, Ibrutinib, reference compound]	97%
Cc1cnc(S(C)(=O)=O)nc1N1CCCC(n2nc(-c3ccc(Oc4ccccc4)cc3)c3c(N)ncnc32)C1 (centres unmarked)	93%
COC(=O)c1cnc(S(C)(=O)=O)nc1N1CCCC(n2nc(-c3ccc(Oc4ccccc4)cc3)c3c(N)ncnc32)C1 (centres unmarked)	86%

Q. Could you tell me which remaining binding at 1 µM is on file for CNC(=O)c1cnc(S(C)(=O)=O)nc1N1CCCC(n2nc(-c3ccc(Oc4ccccc4)cc3)c3c(N)ncnc32)C1 (centres unmarked) ?
A. 100%

Q. Requested read-out: remaining binding at 1 µM. Entry: CCOC(=O)c1cnc(S(C)(=O)=O)nc1N1CCC[C@@H](n2nc(-c3ccc(Oc4ccccc4)cc3)c3c(N)ncnc32)C1
A. 100%

---

biological target: ABL1(F317L)-nonphosphorylated (Homo sapiens, UniProt P00519, F317L); construct: purchased Eurofins DiscoverX KINOMEscan (scanTK); test: KINOMEscan ScanTK; assay type: binding; details: read-out: %Control @1000nM
recorded endpoint: remaining binding at 1 µM
Hey, just the number and the unit after it is fine.

Worked examples follow.
Cc1cnc(S(C)(=O)=O)nc1N1CCCC(n2nc(-c3ccc(Oc4ccccc4)cc3)c3c(N)ncnc32)C1 (centres unmarked)	76%
COC(=O)c1cnc(S(C)(=O)=O)nc1N1CCCC(n2nc(-c3ccc(Oc4ccccc4)cc3)c3c(N)ncnc32)C1 (centres unmarked)	70%
C=CC(=O)N1CCC[C@@H](n2nc(-c3ccc(Oc4ccccc4)cc3)c3c(N)ncnc32)C1 [Compound 1g, Ibrutinib, reference compound]	32%

Q. # input compound: CCOC(=O)c1cnc(S(C)(=O)=O)nc1N1CCC[C@@H](n2nc(-c3ccc(Oc4ccccc4)cc3)c3c(N)ncnc32)C1 ; wanted: its remaining binding at 1 µM
A. 90%

Q. What value of remaining binding at 1 µM has been reported for the following compound? CNC(=O)c1cnc(S(C)(=O)=O)nc1N1CCCC(n2nc(-c3ccc(Oc4ccccc4)cc3)c3c(N)ncnc32)C1 (centres unmarked)
A. 54%

---

target: EPHA7 (Homo sapiens, UniProt Q15375); construct: purchased Eurofins DiscoverX KINOMEscan (scanTK); test: KINOMEscan ScanTK; format: binding; details: @1000nM
Sequence (Q15375 28-998): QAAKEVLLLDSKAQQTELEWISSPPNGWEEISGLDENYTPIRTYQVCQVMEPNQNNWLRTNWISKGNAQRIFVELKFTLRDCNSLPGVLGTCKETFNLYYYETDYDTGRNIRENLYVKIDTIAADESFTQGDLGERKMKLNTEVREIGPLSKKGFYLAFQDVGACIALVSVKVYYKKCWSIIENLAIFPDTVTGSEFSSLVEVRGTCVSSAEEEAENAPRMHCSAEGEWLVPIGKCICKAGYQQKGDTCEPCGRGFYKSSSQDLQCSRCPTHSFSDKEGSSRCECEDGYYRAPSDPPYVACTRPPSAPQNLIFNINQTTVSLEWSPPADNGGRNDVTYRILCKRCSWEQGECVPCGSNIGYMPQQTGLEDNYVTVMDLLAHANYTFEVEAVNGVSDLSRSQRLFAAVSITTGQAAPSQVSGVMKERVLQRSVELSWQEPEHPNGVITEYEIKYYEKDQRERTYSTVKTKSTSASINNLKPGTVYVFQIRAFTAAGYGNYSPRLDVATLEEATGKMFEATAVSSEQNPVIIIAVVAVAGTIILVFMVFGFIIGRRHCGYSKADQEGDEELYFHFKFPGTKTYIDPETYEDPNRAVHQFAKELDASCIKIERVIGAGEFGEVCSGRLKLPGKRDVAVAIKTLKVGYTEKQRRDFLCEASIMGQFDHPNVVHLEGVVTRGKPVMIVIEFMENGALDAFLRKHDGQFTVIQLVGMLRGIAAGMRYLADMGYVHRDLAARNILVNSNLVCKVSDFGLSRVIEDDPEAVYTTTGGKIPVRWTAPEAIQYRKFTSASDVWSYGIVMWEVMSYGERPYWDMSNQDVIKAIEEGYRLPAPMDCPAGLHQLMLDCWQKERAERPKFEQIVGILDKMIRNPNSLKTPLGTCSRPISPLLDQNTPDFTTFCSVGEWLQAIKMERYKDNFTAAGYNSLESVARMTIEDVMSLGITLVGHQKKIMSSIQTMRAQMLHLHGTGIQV
recorded endpoint: difference in %Control versus compound Ib at 1 µM (%)
Give the number; % is assumed, so skip it.

Q. Query (compound): COC(=O)c1cnc(S(C)(=O)=O)nc1N1CCCC(n2nc(-c3ccc(Oc4ccccc4)cc3)c3c(N)ncnc32)C1 (stereo not shown) ; field requested: difference in %Control versus compound Ib at 1 µM
A. -2

Q. Query: difference in %Control versus compound Ib at 1 µM; subject: CNC(=O)c1cnc(S(C)(=O)=O)nc1N1CCCC(n2nc(-c3ccc(Oc4ccccc4)cc3)c3c(N)ncnc32)C1 (stereo not shown)
A. 4

Q. Look up difference in %Control versus compound Ib at 1 µM for this compound: CCOC(=O)c1cnc(S(C)(=O)=O)nc1N1CCC[C@@H](n2nc(-c3ccc(Oc4ccccc4)cc3)c3c(N)ncnc32)C1
A. 2

Q. Reported difference in %Control versus compound Ib at 1 µM for Cc1cnc(S(C)(=O)=O)nc1N1CCCC(n2nc(-c3ccc(Oc4ccccc4)cc3)c3c(N)ncnc32)C1 (stereo not shown) : what is it?
A. 2

---

target: FLT4 (Homo sapiens); construct: purchased Eurofins DiscoverX KINOMEscan (scanTK); assay: KINOMEscan ScanTK; format: binding; details: @1000nM, read-out: %Control
Sequence (P35916 25-1363): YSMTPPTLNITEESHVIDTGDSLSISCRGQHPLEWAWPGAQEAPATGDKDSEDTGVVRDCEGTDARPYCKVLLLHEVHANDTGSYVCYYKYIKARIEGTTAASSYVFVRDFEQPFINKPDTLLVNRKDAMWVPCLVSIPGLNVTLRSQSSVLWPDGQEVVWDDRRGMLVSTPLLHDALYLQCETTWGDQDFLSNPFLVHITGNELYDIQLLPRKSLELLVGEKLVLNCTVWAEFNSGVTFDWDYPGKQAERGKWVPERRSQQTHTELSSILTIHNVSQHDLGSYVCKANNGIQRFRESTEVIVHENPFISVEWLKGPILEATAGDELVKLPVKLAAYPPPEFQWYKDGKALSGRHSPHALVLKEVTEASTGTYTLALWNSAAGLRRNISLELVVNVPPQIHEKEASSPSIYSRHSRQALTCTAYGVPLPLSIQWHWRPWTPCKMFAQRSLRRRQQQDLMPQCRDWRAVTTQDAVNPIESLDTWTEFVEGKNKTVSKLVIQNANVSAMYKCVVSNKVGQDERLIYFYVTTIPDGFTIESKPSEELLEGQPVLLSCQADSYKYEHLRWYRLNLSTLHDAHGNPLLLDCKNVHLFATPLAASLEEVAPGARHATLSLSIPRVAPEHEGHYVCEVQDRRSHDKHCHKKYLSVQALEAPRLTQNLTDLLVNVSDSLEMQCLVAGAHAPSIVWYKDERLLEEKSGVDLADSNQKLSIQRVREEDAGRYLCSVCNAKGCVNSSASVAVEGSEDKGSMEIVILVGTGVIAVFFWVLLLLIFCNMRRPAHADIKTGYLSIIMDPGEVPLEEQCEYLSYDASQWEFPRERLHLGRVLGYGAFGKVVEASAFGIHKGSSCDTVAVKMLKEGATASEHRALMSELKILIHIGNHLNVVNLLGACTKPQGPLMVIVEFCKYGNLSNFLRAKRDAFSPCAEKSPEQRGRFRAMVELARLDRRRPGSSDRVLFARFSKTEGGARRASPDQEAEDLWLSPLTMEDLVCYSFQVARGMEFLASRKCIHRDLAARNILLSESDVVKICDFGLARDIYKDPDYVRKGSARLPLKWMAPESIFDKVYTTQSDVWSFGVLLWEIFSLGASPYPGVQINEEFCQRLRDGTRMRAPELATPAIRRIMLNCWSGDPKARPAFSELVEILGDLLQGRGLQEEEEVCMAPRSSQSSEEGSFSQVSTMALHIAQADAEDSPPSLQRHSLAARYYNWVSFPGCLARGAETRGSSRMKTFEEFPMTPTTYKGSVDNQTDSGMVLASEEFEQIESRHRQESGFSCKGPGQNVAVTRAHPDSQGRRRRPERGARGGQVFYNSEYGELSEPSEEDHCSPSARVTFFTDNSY
Each entry below carries its recorded remaining binding at 1 µM.
Quick note: give the figure in %, leave out the unit.

Sample records with remaining binding at 1 µM:
CNC(=O)c1cnc(S(C)(=O)=O)nc1N1CCCC(n2nc(-c3ccc(Oc4ccccc4)cc3)c3c(N)ncnc32)C1 (centres unmarked) [Compound 8d]	94
COC(=O)c1cnc(S(C)(=O)=O)nc1N1CCCC(n2nc(-c3ccc(Oc4ccccc4)cc3)c3c(N)ncnc32)C1 (centres unmarked) [Compound 8b]	89
C=CC(=O)N1CCC[C@@H](n2nc(-c3ccc(Oc4ccccc4)cc3)c3c(N)ncnc32)C1 [Compound 1g, Ibrutinib, reference compound]	27
Cc1cnc(S(C)(=O)=O)nc1N1CCCC(n2nc(-c3ccc(Oc4ccccc4)cc3)c3c(N)ncnc32)C1 (centres unmarked) [Compound 8a]	88

In the following, a different compound is considered.
Q. Entry CCOC(=O)c1cnc(S(C)(=O)=O)nc1N1CCC[C@@H](n2nc(-c3ccc(Oc4ccccc4)cc3)c3c(N)ncnc32)C1 [Compound 8c] has what remaining binding at 1 µM?
A. 100
